aptazyme ON/OFF ratio: recorded values
B1: Pistol ribozyme (parent)
chain: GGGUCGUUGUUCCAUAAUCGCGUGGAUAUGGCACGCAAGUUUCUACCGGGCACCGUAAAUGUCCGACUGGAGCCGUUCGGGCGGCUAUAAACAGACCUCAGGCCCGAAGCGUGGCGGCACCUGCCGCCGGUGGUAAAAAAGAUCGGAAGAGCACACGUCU

Variants of: B1
Test: aptazyme ON/OFF ratio, guanine; higher = stronger switching; co-transcriptional cleavage with and without guanine

- VARIANT_SPEC: "U7C G9U U10A U11C"
  aptazyme ON/OFF ratio: 1.06
- VARIANT_SPEC: "U8C G9U U10G C12U C13U"
  aptazyme ON/OFF ratio: 1.01
- VARIANT_SPEC: "U7G U8C G9C U10G C13A"
  aptazyme ON/OFF ratio: 1.3
- VARIANT_SPEC: "U7G U8A G9U U11G C12G C13G"
  aptazyme ON/OFF ratio: 1.03
- VARIANT_SPEC: "U8C G9C C12A C13A"
  aptazyme ON/OFF ratio: 1.08
- VARIANT_SPEC: "U7A U8C G9U U10A U11C C13G"
  aptazyme ON/OFF ratio: 1.1
- VARIANT_SPEC: "U7A G9C U10A U11A C12G"
  aptazyme ON/OFF ratio: 1.06
- VARIANT_SPEC: "U7A U8G G9U U10G U11C"
  aptazyme ON/OFF ratio: 1.03
- VARIANT_SPEC: "U7C U8A G9A U10A U11C C12U C13G"
  aptazyme ON/OFF ratio: 1.06
- VARIANT_SPEC: "U7C G9U U10G U11G C13A"
  aptazyme ON/OFF ratio: 1.09
- VARIANT_SPEC: "U7G U8A G9U C13U"
  aptazyme ON/OFF ratio: 1.3
- VARIANT_SPEC: "U7C G9U U10C U11C C12A C13A"
  aptazyme ON/OFF ratio: 1.04
- VARIANT_SPEC: "U7G U8A U10C U11A C12U"
  aptazyme ON/OFF ratio: 1.42
- VARIANT_SPEC: "U7G U8G U11C C12A C13G"
  aptazyme ON/OFF ratio: 1.15
- VARIANT_SPEC: "U7C U8A G9C U10A U11C C12G"
  aptazyme ON/OFF ratio: 1.2
- VARIANT_SPEC: "U7C U8A G9U U10C U11G C13G"
  aptazyme ON/OFF ratio: 1.04
- VARIANT_SPEC: "U7C U8A G9C U10C U11G C12U C13U"
  aptazyme ON/OFF ratio: 1.1
- VARIANT_SPEC: "U7A U8C G9U C12G C13A"
  aptazyme ON/OFF ratio: 1.23
- VARIANT_SPEC: "U8G C12U C13A"
  aptazyme ON/OFF ratio: 1.23
- VARIANT_SPEC: "G9C U10C C13G"
  aptazyme ON/OFF ratio: 1.06
- VARIANT_SPEC: "U7G G9U U10A U11A C12A C13A"
  aptazyme ON/OFF ratio: 1.17
- VARIANT_SPEC: "U7G U8C G9U U10A U11C C12A"
  aptazyme ON/OFF ratio: 2.56
